The measured values listed here are drawn from patent US20140274782A1.

Target: T1, G9a and GLP (Homo sapiens, UniProt Q96KQ7+Q9H9B1)
T1 sequence (Q96KQ7 2-1210 limits assumed): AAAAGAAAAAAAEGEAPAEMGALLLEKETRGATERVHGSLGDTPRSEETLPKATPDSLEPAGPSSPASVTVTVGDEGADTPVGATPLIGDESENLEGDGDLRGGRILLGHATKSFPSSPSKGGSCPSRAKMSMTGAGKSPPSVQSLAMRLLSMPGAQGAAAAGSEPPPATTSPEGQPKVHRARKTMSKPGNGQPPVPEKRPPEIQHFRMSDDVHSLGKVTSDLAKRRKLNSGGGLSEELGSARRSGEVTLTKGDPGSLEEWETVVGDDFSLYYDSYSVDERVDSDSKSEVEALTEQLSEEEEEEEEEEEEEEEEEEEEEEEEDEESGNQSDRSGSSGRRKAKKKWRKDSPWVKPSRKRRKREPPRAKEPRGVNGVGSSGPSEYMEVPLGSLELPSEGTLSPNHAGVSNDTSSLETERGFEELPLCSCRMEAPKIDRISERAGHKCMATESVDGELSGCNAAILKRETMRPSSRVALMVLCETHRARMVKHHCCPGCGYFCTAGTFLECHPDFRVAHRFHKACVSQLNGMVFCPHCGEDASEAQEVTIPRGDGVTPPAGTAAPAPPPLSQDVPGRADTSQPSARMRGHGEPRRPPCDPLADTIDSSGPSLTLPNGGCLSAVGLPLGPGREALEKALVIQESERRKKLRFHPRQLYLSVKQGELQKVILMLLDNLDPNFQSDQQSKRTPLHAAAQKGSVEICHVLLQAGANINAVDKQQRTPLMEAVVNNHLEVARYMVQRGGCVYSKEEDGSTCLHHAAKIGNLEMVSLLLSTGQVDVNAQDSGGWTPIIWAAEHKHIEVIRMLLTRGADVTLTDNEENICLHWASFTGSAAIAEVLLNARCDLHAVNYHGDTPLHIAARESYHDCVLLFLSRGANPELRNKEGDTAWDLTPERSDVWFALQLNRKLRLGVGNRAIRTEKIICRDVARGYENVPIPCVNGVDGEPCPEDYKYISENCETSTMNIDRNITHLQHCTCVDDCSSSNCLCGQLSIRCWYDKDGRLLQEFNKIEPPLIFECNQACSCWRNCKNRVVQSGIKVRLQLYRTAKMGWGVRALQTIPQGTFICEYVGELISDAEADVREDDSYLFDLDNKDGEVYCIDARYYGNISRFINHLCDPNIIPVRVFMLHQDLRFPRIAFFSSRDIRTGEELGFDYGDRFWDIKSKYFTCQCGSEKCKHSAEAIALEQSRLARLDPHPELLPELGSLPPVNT
T1 sequence (Q9H9B1 2-1298 limits assumed): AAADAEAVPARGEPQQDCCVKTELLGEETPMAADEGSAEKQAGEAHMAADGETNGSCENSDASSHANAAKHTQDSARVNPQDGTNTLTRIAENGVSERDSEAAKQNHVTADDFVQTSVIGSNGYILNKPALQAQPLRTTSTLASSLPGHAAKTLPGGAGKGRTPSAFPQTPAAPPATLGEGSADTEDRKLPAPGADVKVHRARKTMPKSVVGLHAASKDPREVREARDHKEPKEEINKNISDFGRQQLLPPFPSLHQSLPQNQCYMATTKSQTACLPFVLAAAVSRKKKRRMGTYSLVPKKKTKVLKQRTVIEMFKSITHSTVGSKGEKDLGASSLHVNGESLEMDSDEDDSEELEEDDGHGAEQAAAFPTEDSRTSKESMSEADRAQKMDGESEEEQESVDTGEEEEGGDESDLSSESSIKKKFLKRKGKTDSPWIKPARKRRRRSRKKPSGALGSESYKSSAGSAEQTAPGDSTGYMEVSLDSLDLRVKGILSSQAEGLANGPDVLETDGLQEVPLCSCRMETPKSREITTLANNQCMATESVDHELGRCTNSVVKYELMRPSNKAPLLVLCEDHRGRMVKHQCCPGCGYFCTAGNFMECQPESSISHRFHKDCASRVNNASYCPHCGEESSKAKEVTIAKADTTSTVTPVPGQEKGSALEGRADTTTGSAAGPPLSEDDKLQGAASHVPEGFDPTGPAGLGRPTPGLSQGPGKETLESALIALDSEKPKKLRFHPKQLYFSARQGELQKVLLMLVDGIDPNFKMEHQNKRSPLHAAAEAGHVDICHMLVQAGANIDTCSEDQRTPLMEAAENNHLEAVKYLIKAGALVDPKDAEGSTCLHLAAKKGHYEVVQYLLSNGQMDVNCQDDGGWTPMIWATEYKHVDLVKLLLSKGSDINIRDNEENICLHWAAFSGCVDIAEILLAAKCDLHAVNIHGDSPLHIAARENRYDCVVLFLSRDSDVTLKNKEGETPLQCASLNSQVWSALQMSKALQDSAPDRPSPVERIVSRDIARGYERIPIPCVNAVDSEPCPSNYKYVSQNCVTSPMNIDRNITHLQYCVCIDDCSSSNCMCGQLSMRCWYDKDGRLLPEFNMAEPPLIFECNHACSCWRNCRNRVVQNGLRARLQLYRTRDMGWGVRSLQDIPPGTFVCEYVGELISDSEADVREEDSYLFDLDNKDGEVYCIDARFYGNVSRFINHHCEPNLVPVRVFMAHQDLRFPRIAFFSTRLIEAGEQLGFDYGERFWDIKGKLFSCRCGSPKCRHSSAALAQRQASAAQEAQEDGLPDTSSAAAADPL
Assay: Triple SILAC pull-down after UNC0638 treatment of 293T cells, DMSO/UNC0638 ratio of protein captured by 3×MBT;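 further: mass spectrometry (Q-Exactive) SILAC quantitation, DMSO/UNC0638 ratio computed after subtracting 3×MBTD355N mutant pull-down background, only proteins with at least twofold 3×MBT over mutant signal considered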
Assay type: cell-based
Design: endogenous in cells; host or cells: HEK 293T
Conditions: average of UNC Light and UNC Heavy experiments; all values in log base 2
Relative to UNC0638 Average by entry:
Please respond with the number in log base 2 and leave the unit unwritten.

Reported Relative to UNC0638 Average, molecule HPRT1 (protein, UniProt P00492 2-218, looked up) Hypoxanthine-guanine …: ATRSPGVVISDDEPGYDLDLFCIPNHYAEDLERVFIPHGLIMDRTERLARDVMKEMGGHHIVALCVLKGGYKFFADLLDYIKALNRNSDRSIPMTVDFIRLKSYCNDQSTGDIKVIGGDDLSTLTGKNVLIVEDIIDTGKTMQTLLSLVRQYNPKMVKVASLLVKRTPRSVGYKPDFVGFEIPDKFVVGYALDYNEYFRDLNHVCVISETGKAKYKA : ____ 0.10

Queued: DNAJC9 (protein, UniProt Q8WXX5 1-260, looked up) DnaJ homolog subfamily C …: MGLLDLCEEVFGTADLYRVLGVRREASDGEVRRGYHKVSLQVHPDRVGEGDKEDATRRFQILGKVYSVLSDREQRAVYDEQGTVDEDSPVLTQDRDWEAYWRLLFKKISLEDIQAFEKTYKGSEEELADIKQAYLDFKGDMDQIMESVLCVQYTEEPRIRNIIQQAIDAGEVPSYNAFVKESKQKMNARKRRAQEEAKEAEMSRKELGLDEGVDSLKAAIQSRQKDRQKEMDNFLAQMEAKYCKSSKGGGKKSALKKEKK 0.04

Try CSRP2 (protein, UniProt Q16527 1-193, looked up) Cysteine and glycine-rich …: MPVWGGGNKCGACGRTVYHAEEVQCDGRSFHRCCFLCMVCRKNLDSTTVAIHDEEIYCKSCYGKKYGPKGYGYGQGAGTLNMDRGERLGIKPESVQPHRPTTNPNTSKFAQKYGGAEKCSRCGDSVYAAEKIIGAGKPWHKNCFRCAKCGKSLESTTLTEKEGEIYCKGCYAKNFGPKGFGYGQGAGALVHAQ next. −0.54

Entry to check: SNRNP40 (protein, UniProt Q96DI7 1-357, looked up) U5 small nuclear …: MIEQQKRKGPELPLVPVKRQRHELLLGAGSGPGAGQQQATPGALLQAGPPRCSSLQAPIMLLSGHEGEVYCCKFHPNGSTLASAGFDRLILLWNVYGDCDNYATLKGHSGAVMELHYNTDGSMLFSASTDKTVAVWDSETGERVKRLKGHTSFVNSCYPARRGPQLVCTGSDDGTVKLWDIRKKAAIQTFQNTYQVLAVTFNDTSDQIISGGIDNDIKVWDLRQNKLTYTMRGHADSVTGLSLSSEGSYLLSNAMDNTVRVWDVRPFAPKERCVKIFQGNVHNFEKNLLRCSWSPDGSKIAAGSADRFVYVWDTTSRRILYKLPGHAGSINEVAFHPDEPIIISASSDKRLYMGEIQ 0.07

Same question for UBXN1 (protein, UniProt Q04323 2-297, looked up) UBX domain-containing protein …: AELTALESLIEMGFPRGRAEKALALTGNQGIEAAMDWLMEHEDDPDVDEPLETPLGHILGREPTSSEQGGLEGSGSAAGEGKPALSEEERQEQTKRMLELVAQKQREREEREEREALERERQRRRQGQELSAARQRLQEDEMRRAAEERRREKAEELAARQRVREKIERDKAERAKKYGGSVGSQPPPVAPEPGPVPSSPSQEPPTKREYDQCRIQVRLPDGTSLTQTFRAREQLAAVRLYVELHRGEELGGGQDPVQLLSGFPRRAFSEADMERPLQELGLVPSAVLIVAKKCPS please. 0.08

Then this molecule: PRDX1 (protein, UniProt Q06830 2-199, looked up) Peroxiredoxin-1: SSGNAKIGHPAPNFKATAVMPDGQFKDISLSDYKGKYVVFFFYPLDFTFVCPTEIIAFSDRAEEFKKLNCQVIGASVDSHFCHLAWVNTPKKQGGLGPMNIPLVSDPKRTIAQDYGVLKADEGISFRGLFIIDDKGILRQITVNDLPVGRSVDETLRLVQAFQFTDKHGEVCPAGWKPGSDTIKPDVQKSKEYFSKQK 0.10

For DEK (protein, UniProt P35659 2-375, looked up) Protein DEK: SASAPAAEGEGTPTQPASEKEPEMPGPREESEEEEDEDDEEEEEEEKEKSLIVEGKREKKKVERLTMQVSSLQREPFTIAQGKGQKLCEIERIHFFLSKKKTDELRNLHKLLYNRPGTVSSLKKNVGQFSGFPFEKGSVQYKKKEEMLKKFRNAMLKSICEVLDLERSGVNSELVKRILNFLMHPKPSGKPLPKSKKTCSKGSKKERNSSGMARKAKRTKCPEILSDESSSDEDEKKNKEESSDDEDKESEEEPPKKTAKREKPKQKATSKSKKSVKSANVKKADSSTTKKNQNSSKKESESEDSSDDEPLIKKLKKPPTDEELKETIKKLLASANLEEVTMKQICKKVYENYPTYDLTERKDFIKTTVKELIS then? 0.10
